Target: human FLAP (Homo sapiens (Human))
Test: FLAP binding assay (HTRF format)
Conditions: human FLAP wild type, HTRF format; average of two plates, duplicates
Where a name gives a salt, the structure may show the parent alone.
I'd appreciate it if you could label each record using Ki and these ranges: low end: < 3 nM; middle: ≥ 3 nM and < 6 nM; high end: ≥ 6 nM

• Nc1cnc(-c2ccc(-c3ccccc3S(=O)(=O)N(CCO)CCO)cc2F)cn1 = high end
• C[C@H](NS(=O)(=O)c1ccccc1-c1ccc(-c2cnc(N)nc2)c(F)c1)C(=O)OC(C)(C)C = middle
• Nc1cncc(Sc2ccccc2-c2ccc(-c3cnc(N)nc3)c(F)c2)n1 [Example 336, formate salt] = middle
• CC(C)(C)S(=O)(=O)c1ccccc1-c1ccc(-c2cnc(N)cn2)c(F)c1 = high end
• C[C@H](O)CNS(=O)(=O)c1ccccc1-c1ccc(-c2cnc(N)nc2)c(F)c1 [Example 279, trifluoroacetic acid salt] = high end
• Nc1cnc(-c2ccc(-c3ccccc3S(=O)(=O)N[C@@H]3CCCC[C@H]3O)cc2F)cn1 = low end
• Nc1cnc(-c2ccc(-c3ccccc3S(=O)(=O)NC3CCCCC3)cc2F)cn1 = low end
• CC(C)[C@H](CO)NS(=O)(=O)c1ccccc1-c1ccc(-c2cnc(N)cn2)c(F)c1 = low end
• Nc1cnc(-c2ccc(-c3ccccc3SCC3CNC(=O)O3)cc2F)cn1 (racemic) = middle

* * *

Target: human FLAP (Homo sapiens (Human), UniProt P20292)
Sequence (P20292 whole entry): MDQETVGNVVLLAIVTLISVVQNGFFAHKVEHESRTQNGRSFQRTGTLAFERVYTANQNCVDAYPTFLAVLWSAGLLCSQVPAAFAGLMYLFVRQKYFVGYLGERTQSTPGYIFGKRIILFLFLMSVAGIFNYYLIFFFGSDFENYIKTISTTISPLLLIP
Experiment: FLAP binding assay (HTRF format)
Conditions: wild type FLAP, HTRF format
observation.type: Ki (nM)

• Nc1ccc(Oc2ccccc2-c2ccc(-c3cnc(N)cn3)c(F)c2)nc1 = 1.9
• N#Cc1nc(N)cnc1-c1ccc(-c2ccccc2S(=O)(=O)N2CCS(=O)(=O)CC2)cc1F = 102
• CC(C)(CO)NS(=O)(=O)c1ccccc1-c1ccc(-c2ccc(N)nc2)c(F)c1 = 2.6
• Nc1cc(Oc2ccccc2-c2ccc(-c3cnc(N)nc3)c(F)c2)ncn1 = 21
• Nc1cnc(-c2ccc(-c3ccccc3Oc3ccnc(C(F)(F)F)c3)cc2F)cn1 = 27.4
• Nc1ncc(-c2ccc(-c3ccccc3C(=O)N3CCOCC3)cc2F)cn1 = 433
• Fc1cc(-c2ccccc2Oc2ncccn2)ccc1-c1cnc2[nH]cnc2c1 = 28
• Nc1ncc(-c2ccc(-c3cccnc3O[C@H]3CC[C@H](N)CC3)cc2F)cn1 = 306

* * *

Target: human FLAP (Homo sapiens (Human), UniProt P20292)
Test: FLAP binding assay (HTRF format)
Conditions: wild type FLAP, HTRF format
pKi: −log10 of the molar value. Counter-ions that a name gives are not always drawn.
Kind request: treat 8 as inclusive, so pKi at 8 or higher is met, anything lower is not met.

• Nc1ccc(-c2ccc(-c3ccccc3S(=O)(=O)N3C[C@@H]4C[C@H]3CO4)cc2F)cn1 = met
• Nc1cnc(-c2ccc(-c3ccccc3Sc3cncc(N)n3)cc2F)cn1 = met
• CC(C)Oc1ncccc1-c1ccc(-c2cnc(N)cn2)c(F)c1 = not met
• Nc1cnc(-c2ccc(-c3ccc(C(F)(F)F)cc3C=O)cc2F)cn1 = met
• N#Cc1cccc(COc2ccccc2-c2ccc(-c3cnc(N)cn3)c(F)c2)n1 = not met
• COc1ncccc1-c1ccc(-c2cnc(N)cn2)c(F)c1 = not met
• Nc1ncc(-c2ccc(-c3ccccc3C(=O)NCCO)cc2F)cn1 = not met
• Nc1cnc(-c2ccc(-c3ccccc3Oc3cc(N4CCC4)ncn3)cc2F)cn1 = met
• CNC1CCN(C(=O)c2ccccc2-c2ccc(-c3cnc(N)nc3)c(F)c2)CC1 = not met
• Cc1cc(-c2ccccc2S(=O)(=O)NC(C)(C)C)ccc1-c1cnc(N)cn1 = not met
• CC(C)(C)NS(=O)(=O)c1ccccc1-c1ccc(-c2cn3cc(C#N)ccc3n2)c(F)c1 = not met
• CNS(=O)(=O)c1ccccc1-c1ccc(-c2cnc3[nH]ccc3c2)c(F)c1 = met
• Cc1cc(C)nc(Oc2ccccc2-c2ccc(-c3cnc(N)nc3)c(F)c2)n1 = not met
• CC(C)CS(=O)(=O)Nc1ccccc1-c1ccc(-c2cnc3[nH]ccc3n2)c(F)c1 = met
• CCNS(=O)(=O)c1cc(C(F)(F)F)ccc1-c1ccc(-c2cnc(N)nc2)nc1 [Example 692, trifluoroacetic acid salt] = not met
• Nc1cnc(-c2ccc(-c3ccccc3-c3cncnc3)cc2F)cn1 = not met
• CS(=O)(=O)Cc1ccccc1-c1ccc(-c2cnc(N)cn2)c(F)c1 = not met
• Nc1cnc(-c2ccc(-c3ccccc3OC(F)(F)F)cc2F)cn1 = not met
• Cc1nc(N)cc(Oc2ccccc2-c2ccc(-c3cnc(N)nc3)c(F)c2)n1 = not met
• C[C@H](O)CNS(=O)(=O)c1ccccc1-c1ccc(-c2cnc(N)nc2)nc1 = not met
• Nc1cnc(-c2ccc(-c3ccccc3-c3cnccn3)cc2F)cn1 = not met
• Nc1cnc(-c2ccc(-c3ccccc3-c3ccc(-c4cnc(N)cn4)c(F)c3)cc2F)cn1 = met
• Nc1cnc(Sc2ccccc2-c2ccc(-c3cnc(N)cn3)c(F)c2)cn1 = met
• Cc1cc(-c2ccccc2S(C)(=O)=O)ccc1-c1cnc(N)cn1 = not met
• Nc1cnc(-c2ccc(-c3ccccc3S(=O)(=O)c3nccc(N)n3)cc2F)cn1 = not met
• CC(C)(C)NS(=O)(=O)c1ccccc1-c1ccc(-c2cnc(N)cn2)cc1 = met

* * *

Biological target: UniProt:P20292
Experiment: FLAP binding assay (HTRF format)
Settings: read-out: FLAP Binding wild type HTRF Ki
pKi: −log10 of the molar value. Structures can show the parent of a compound that is named as a salt.
Kind request: treat 7 as inclusive, so pKi at 7 or higher is Fulfilled, anything lower is Not fulfilled.

- Nc1cnc(-c2ccc(-c3ccccc3CS(=O)(=O)N[C@H]3CC[C@H](O)CC3)cc2F)cn1 [Example 226, formic acid salt]: Not fulfilled
- CCCS(=O)(=O)Nc1ccccc1-c1ccc(-c2cnc(N)cn2)c(F)c1: Fulfilled
- Nc1ncc(-c2ccc(-c3ccccc3S(=O)(=O)N3CCC(F)(F)C3)cn2)cn1 [Example 680, trifluoroacetic acid salt]: Not fulfilled
- CS(=O)(=O)c1ccccc1-c1ccc(-c2cnc(N)nc2)c(F)c1 [Example 304, trifluoroacetic acid salt]: Not fulfilled
- Nc1cnc(-c2ccc(-c3ccccc3Sc3nccc(N)n3)cc2F)cn1 [Example 216, hydrochloride]: Fulfilled
- CC(C)(O)CNS(=O)(=O)c1ccccc1-c1ccc(-c2cnc(N)nc2)c(F)c1 [Example 272, trifluoroacetic acid salt]: Fulfilled
- C[C@@H](NS(=O)(=O)c1ccccc1-c1ccc(-c2cnc(N)nc2)c(F)c1)C(F)(F)F [Example 268, trifluoroacetic acid salt]: Fulfilled
- C[Si](C)(C)CCOCS(=O)(=O)c1ccccc1-c1ccc(-c2cnc(N)cn2)c(F)c1 [Example 245, hydrochloride]: Fulfilled
- Nc1ncc(-c2ccc(-c3ccccc3S(=O)(=O)N3CC(O)(C(F)(F)F)C3)cc2F)cn1: Fulfilled
- Nc1ncc(-c2ccc(-c3cccnc3S(=O)(=O)C3CCNC3)cc2F)cn1 (centres unmarked) [Example 804, formic acid salt]: Not fulfilled
- C[C@H](NS(=O)(=O)c1ccccc1-c1ccc(-c2cnc(N)nc2)c(F)c1)C(F)(F)F [Example 297, trifluoroacetic acid salt]: Fulfilled
- Nc1cnc(-c2ccc(-c3ccccc3CS(=O)(=O)N3CCNC(=O)C3)cc2F)cn1 [Example 223, formic acid salt]: Not fulfilled

* * *

Reported Ki by item:
Target: human FLAP (Homo sapiens (Human), UniProt P20292)
Assay: FLAP binding assay (HTRF format)
Conditions: human FLAP wild type, HTRF format; average of two plates, duplicates
Structures can show the parent of a compound that is named as a salt.
observation.type: Ki

* Nc1cnc(-c2ccc(-c3ccccc3NS(=O)(=O)C(F)(F)F)cc2F)cn1 | 14 nM
* O=S(=O)(c1ccccc1-c1ccc(-c2cnc3[nH]ccc3n2)c(F)c1)N1CCCC1 | 25 nM
* CN(C)S(=O)(=O)Nc1ccccc1-c1ccc(-c2cnc(N)nc2)c(F)c1 | 747 nM
* CC1(NS(=O)(=O)c2ccccc2-c2ccc(-c3cnc(N)cn3)c(F)c2)COC1 | 1 nM
* Nc1ncc(-c2ccc(-c3ccccc3S(=O)(=O)Nc3ccccc3)cc2F)cn1 [Example 285, trifluoroacetic acid salt] | 3 nM
* NCC1CN(S(=O)(=O)c2ccccc2-c2ccc(-c3cnc(N)cn3)c(F)c2)C1 | 35 nM
* CN1C(C)(C)CC(NS(=O)(=O)c2ccccc2-c2ccc(-c3cnc(N)cn3)c(F)c2)CC1(C)C | 95 nM
* Nc1ncc(-c2ccc(-c3ccccc3NS(=O)(=O)N3CCOCC3)cc2F)cn1 | 492 nM

* * *

Target: human FLAP (Homo sapiens (Human))
Test: FLAP binding assay (HTRF format)
Conditions: wild type FLAP, HTRF format
Where a name gives a salt, the structure may show the parent alone.
observation.type: log10 Ki (log10 of the value in µM)

• Nc1cnc(-c2ccc(-c3cccnc3S(=O)(=O)CC3CCOCC3)cc2F)cn1 [Example 824, formic acid salt] = -1.99
• Nc1cnc(-c2ccc(-c3ccccc3-c3cnc(N)nc3)cc2F)cn1 = -1.81
• Nc1cnc(-c2ccc(-c3ccc(C(F)(F)F)cc3Oc3nccc(N)n3)cc2F)cn1 = -3.00
• COCCCS(=O)(=O)c1ncccc1-c1ccc(-c2cnc(N)cn2)c(F)c1 = -1.57
• CC(CO)Oc1ncccc1-c1ccc(-c2cnc(N)nc2)c(F)c1 (stereo in doubt) = 0.15
• CC(=O)N1CCC(S(=O)(=O)c2ncccc2-c2ccc(-c3cnc(N)nc3)c(F)c2)CC1 = -0.59
